STUDY_TARGET: Sphingosine 1-phosphate receptor 1 (Homo sapiens)
Sequence (P21453 whole entry): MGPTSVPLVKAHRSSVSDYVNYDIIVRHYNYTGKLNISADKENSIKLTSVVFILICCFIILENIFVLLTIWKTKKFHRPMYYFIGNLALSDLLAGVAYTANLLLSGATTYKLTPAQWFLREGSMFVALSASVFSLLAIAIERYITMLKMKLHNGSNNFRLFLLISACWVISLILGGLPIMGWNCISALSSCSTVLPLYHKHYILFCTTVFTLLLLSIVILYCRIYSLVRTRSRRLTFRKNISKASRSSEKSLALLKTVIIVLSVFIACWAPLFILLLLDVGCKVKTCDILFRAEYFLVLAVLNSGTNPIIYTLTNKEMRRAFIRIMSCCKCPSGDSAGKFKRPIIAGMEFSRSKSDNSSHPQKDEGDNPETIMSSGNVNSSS
ASSAY_EXPLANATION: Displacement of [33P]S1P from human S1P1 receptor expressed in HEK293T cells after 1 hr by liquid scintillation counting analysis
Lab note: anything with IC50 below 90 nM is marked met; values at 90 nM or higher are marked not met.

The examples below pair each entry with its known result.
CCCCCCCCOc1ccc(NC(=O)[C@@H](N)CC(=O)O)cc1C(F)(F)F :: met
N[C@@H](CC(=O)O)c1nc(-c2ccc(OCc3ccc(-c4ccccc4)cc3)c(C(F)(F)F)c2)c[nH]1 :: met

Input line: # check: IC50 < 90 nM for CCCCCCCCc1ccc(NC(=O)[C@@](C)(N)CC(=O)O)cc1C(F)(F)F
Output line: not met

Input line: # check: IC50 < 90 nM for CCCCCCCCOc1ccc(NC(=O)[C@@](C)(N)CC(=O)O)cc1C(F)(F)F
Output line: not met

Input line: # check: IC50 < 90 nM for CCCCCCCCOc1ccc(NC(=O)[C@@](C)(N)CCC(=O)O)cc1
Output line: met

Input line: # check: IC50 < 90 nM for C[C@](N)(CC(=O)O)c1nc(-c2ccc(OCc3ccc(-c4ccccc4)cc3)c(C(F)(F)F)c2)c[nH]1
Output line: met

###

STUDY_TARGET: UniProtKB P21453
ASSAY_EXPLANATION: Agonist activity at human S1P1 receptor expressed in HEK293T cells assessed as stimulation of [35S]GTPgammaS binding
Could you please report measured pEC50 for the items listed next?
One number for each entry, as −log10 of the molar value.

Examples with their reported pEC50 follow.
CCCCCCCCOc1ccc(NC(=O)[C@@H](N)CC(=O)O)cc1 :: 6.79
C[C@](N)(CC(=O)O)c1nc(-c2ccc(OCc3ccc(-c4ccccc4)cc3)c(C(F)(F)F)c2)c[nH]1 :: 6.15
CCCCCCCCOc1ccc(NC(=O)[C@@H](N)CC(=O)O)cc1C(F)(F)F :: 6.64
CCCCCCCCOc1ccc(NC(=O)[C@@](C)(N)CC(=O)O)cc1C(F)(F)F :: 6.87

Input line: Please report the recorded pEC50 for N[C@@H](CC(=O)O)c1nc(-c2ccc(OCc3ccc(-c4ccccc4)cc3)c(C(F)(F)F)c2)c[nH]1 .
Output line: 6.79

###

Species: Homo sapiens
ASSAY_EXPLANATION: Selectivity index, ratio of EC50 for human S1P3 to EC50 for human S1P1
RESULT_TYPE: Ratio EC50

Examples with their reported Ratio EC50 follow.
N[C@@H](CC(=O)O)c1nc(-c2ccc(OCc3ccc(-c4ccccc4)cc3)c(C(F)(F)F)c2)c[nH]1 :: > 18.6
CCCCCCCCOc1ccc(NC(=O)[C@@H](N)CC(=O)O)cc1C(F)(F)F :: > 13
C[C@](N)(CC(=O)O)c1nc(-c2ccc(OCc3ccc(-c4ccccc4)cc3)c(C(F)(F)F)c2)c[nH]1 :: > 4
CCCCCCCCOc1ccc(NC(=O)[C@@](C)(N)CC(=O)O)cc1C(F)(F)F :: > 22

Attention now turns to another entry.
Input line: Please report the recorded Ratio EC50 for CCCCCCCCOc1ccc(NC(=O)[C@@H](N)CC(=O)O)cc1 .
Output line: 11

###

Test system: Mus musculus
ASSAY_EXPLANATION: Immunomodulatory activity in C57Bl/6 mouse assessed as induction of lymphopenia at 10 mg/kg, po measured after 6 hrs
Assay type: functional
Outcome label depends on Activity relative to 30%: at/above gives 1 (yes), below gives 0 (no).

The examples below pair each entry with its known result.
CCCCCCCCOc1ccc(NC(=O)[C@@H](N)CC(=O)O)cc1C(F)(F)F :: 1 (yes)
CCCCCCCCOc1ccc(NC(=O)[C@@](C)(N)/C=C/C(=O)O)cc1 :: 0 (no)
CCCCCCCCOc1ccc(NC(=O)[C@@H](N)CCC(=O)O)cc1 :: 1 (yes)
CCCCCCCCOc1ccc(NC(=O)[C@@](C)(N)CC(=O)O)cc1C(F)(F)F :: 0 (no)

// next entry
Input line: Evaluate CCCCCCCCOc1ccc(NC(=O)[C@@H](N)CC(=O)O)cc1 : Activity at minimum 30%?
Output line: 1 (yes)
